Just for reference, patent US10195222B2 is where these values come from.

# Tested on: HPV-11
# PROTOCOL: HPV-11 antiviral assay, DNA PCR in HEK 293 cells
# Type: cell-based
# CONDITION DESCRIPTION: HEK293; DNA PCR in HEK 293 cells infected with HPV-11
# Text: Assay. DNA PCR in HEK 293 cells infected with HPV-11, EC50, effective concentration 50%; CC50, 50% reduction of cell proliferation. DNA PCR by the methods reported by Chiang et al, Proc Natl Acad Sci USA. 1992. 89(13):5799-803 and Taylor and Morgan, Virology. 2003. 10; 315(1):103-9.

COMPOUND	EC50 [nM]
CCCCCCCCCCCCCCCCCCOCCOP(=O)(COCCn1cnc2c(=O)[nH]c(N)nc21)OCc1ccccc1 (racemic) [Bn-ODE-PMEG]	660

----------
# PROTOCOL: Cytotoxicity (reduction of cell proliferation) in HEK 293 cells
# Assay type: cell-based
# CONDITION DESCRIPTION: human, read-out: CC50 (50% reduction of cell proliferation)
ENDPOINT: CC50

COMPOUND	ENDPOINT	VALUE OBSERVED
CCCCCCCCCCCCCCCCCCOCCOP(=O)(COCCn1cnc2c(=O)[nH]c(N)nc21)OCc1ccccc1 (racemic)	CC50	> 100 µM
CCCCCCCCCCCCCCCCCCOCCOP(=O)(COCCn1cnc2c(N)ncnc21)OCc1ccccc1 (centres unmarked)	CC50	> 100 µM

----------
# Test system: MT-2 cells (human T cell leukemia)
# PROTOCOL: Cytotoxicity in MT-2 cells (flow cytometry, propidium iodide)
# Format: cell-based
# CONDITION DESCRIPTION: 72 hrs, Table 7; read-out: CC50, 50% Cytotoxic concentration, MT2 cells T cell leukemia

COMPOUND	ASSAY TARGET	CC50
CCCCCCCCCCCCCCCCCCOCCOP(=O)(COCCn1cnc2c(=O)[nH]c(N)nc21)OCc1ccccc1 (stereo not shown)	MT-2 cells (human T cell leukemia)	< 0.01 µM

----------
# Test system: HFF cells
# PROTOCOL: Cytotoxicity in HFF cells (HSV-2 table)
# CONDITION DESCRIPTION: read-out: CC50 (HFF cells); Table 10

COMPOUND	CC50
CCCCCCCCCCCCCCCCCCOCCOP(=O)(COCCn1cnc2c(=O)[nH]c(N)nc21)OCc1ccccc1 (stereo not shown)	> 4 µM

----------
# PROTOCOL: Cytotoxicity in HFF cells (HSV-2 table)
# CONDITION DESCRIPTION: human, HFF cells
Listed here are compounds together with their documented CC50.
ENDPOINT: CC50 (µM)

COMPOUND	ENDPOINT	VALUE OBSERVED
CCCCCCCCCCCCCCCCCCOCCOP(=O)(CO[C@H](CO)Cn1ccc(N)nc1=O)OCc1ccccc1 (stereo partly drawn) [Bn-ODE-(S)-HPMPC]	CC50	4.8
CCCCCCCCCCCCCCCCCCOCCOP(=O)(CO[C@H](CO)Cn1cnc2c(N)ncnc21)OCc1ccccc1 (stereo partly drawn) [Bn-ODE-(S)-HPMPA]	CC50	5.2

----------
# PROTOCOL: Cell proliferation assay (neutral red), normal human fibroblasts
# Type: cell-based
# CONDITION DESCRIPTION: normal human fibroblasts (HFF), read-out: Cytotoxicity, CC50, Normal cells Human fibroblasts
# Experimental: Method Cell Proliferation Assays: The various human fibroblast and human cervical cancer cell lines were plated at 5×10^3 per well in 96 well plates using media with 10% fetal bovine serum added and incubated for about 24 hr. Ten mM stock solutions of the compounds were prepared in 10% DMSO in distilled water. […] Cytotoxicity was measured by neutral red reduction, as known in the art.
ENDPOINT: CC50 at 5 days (µM)

MOLECULE	VALUE OBSERVED
CCCCCCCCCCCCCCCCCCOCCOP(=O)(CO[C@H](CO)Cn1cnc2c(N)ncnc21)OCc1ccccc1 (stereo partly drawn) [Bn-ODE-(S)-HPMPA]	5.2
